settings: buffer; pH 7.4; 6.0 h; 150.0 µM
Listed next: entries and their corresponding solubility kinetic.

| compound | result comparator | solubility kinetic [mg/mL] |
| --- | --- | --- |
| Cc1cc(-c2nnc3n2CCCCC3)c(C)n1-c1ccc(Br)cc1 | = | 0.0274 |
| CCc1ccc(C2N=C(N)Nc3nc4ccccc4n32)cc1 (stereo unspecified) | = | 0.00687 |
| CCN1CCCC1CNC(=O)c1cc(S(=O)(=O)CC)c(N)cc1OC (stereo unspecified) | = | 0.0362 |
| NC(=O)C1CCN(c2nc(-c3ccc(N4CCCCC4)nc3)cs2)CC1 | = | 0.0435 |
| Cc1ccc(S(=O)(=O)Nc2cnccc2C(=O)Nc2ccc(-c3nn[nH]n3)cc2)cc1 | > | 0.064 |
| COc1cccc2c1CCCC2CCCN1CCN(C2CCCCC2)CC1 (stereo unspecified) | > | 0.055 |

* * *

details: buffer; pH 7.4; 6.0 h; 150.0 µM
experimental readout: solubility kinetic

| compound | reported measurement |
| --- | --- |
| CC[C@H]1/C=C\C=C/C[C@@H](C)[C@H](O)[C@@](C)(O)C(=O)[C@@H](C)[C@H](O)[C@@H](C)C(=O)[C@@H](C)[C@H](O)[C@@H](C)/C=C\C(=O)O[C@@H]2[C@H](C)[C@H](CC1)O[C@]1(CC[C@H](C)[C@H](C[C@@H](C)O)O1)[C@H]2C | < 1 µg/mL |
| CCOC(=O)c1ccc(NC(=O)c2sc3nc4c(cc3c2N)N2CCC4CC2)cc1 | < 1 µg/mL |
| COc1ccc(C[C@@H]2C(=O)N[C@H](C)C(=O)N(C)[C@@H]3C(=O)N(C)[C@@H](Cc4ccc(O)c(c4)Oc4ccc(cc4)[C@H]3O)C(=O)N[C@@H](C)C(=O)N[C@H](C)C(=O)N2C)cc1 | 96.4 µg/mL |
| O=C(Nc1ccc(S(=O)(=O)Nc2nccs2)cc1)c1ccc2ccccc2c1 | < 1 µg/mL |
| Cc1ccc(-c2ccc(CNc3nc(-c4ccccc4C(C)C)ncc3C)cc2)cn1 | < 1 µg/mL |
| O=C1CCCC2=C1C(c1[nH]ncc1Cl)N=C(Nc1nc3c(Br)cccc3o1)N2 (configuration not stated) | < 1 µg/mL |
| CSc1ccc(/C=C/c2nc3ccccc3n2S(=O)(=O)c2cccc(Cl)c2)cc1 | < 1 µg/mL |
| COc1cccc(C(=O)Nc2nnc(S(=O)(=O)N3CCOCC3)s2)c1 | > 57 µg/mL |
| CCCN1CNc2c(c(=O)[nH]c(=S)n2CCc2cccc(Cl)c2Cl)C1 | 13.4 µg/mL |
| Cc1ccc(NS(=O)(=O)c2ccc(C(=O)Nc3nc(-c4ccccc4)cs3)cc2)cc1 | < 1 µg/mL |
| COc1ccc(CNC(=O)CCCn2nc(C)c3c(C)n(-c4ccc(C)cc4)nc3c2=O)cc1OC | > 48 µg/mL |
| COc1ccc(C(=O)NC2CCCc3c2[nH]c2c(Cl)cccc32)cc1OC (configuration not stated) | 1.14 µg/mL |
| COc1cccc(-n2nc(C(=O)O)cc2-c2ccc(C3CCCCC3)c(Cl)c2)c1 | 15.2 µg/mL |
| Fc1ccc(F)c(Nc2nc(-c3ccncc3)nc3ccccc23)c1 | < 1 µg/mL |
| C=C1c2cccc(O)c2C(O)=C2C(=O)[C@]3(O)C(O)=C(C(N)=O)C(=O)[C@@H](N(C)C)[C@@H]3[C@@H](O)[C@H]12 | > 65 µg/mL |
| CC(=O)c1c(C)[nH]c(C(=O)Nc2cccc(S(=O)(=O)Nc3ccc(Br)c(F)c3)c2)c1C | < 1 µg/mL |
| Fc1ccc(-c2ccc(Nc3nc(-c4ccncc4)nc4ccccc34)cc2F)c(Cl)c1 | < 1 µg/mL |

* * *

settings: buffer; pH 7.4; 6.0 h; 150.0 µM
Listed below: solubility kinetic values for each entry.

| mol | solubility kinetic |
| --- | --- |
| COc1ccc(-c2nc(Nc3ccc(F)c(F)c3)c3ccccc3n2)cc1 | < 1 µg/mL |
| Fc1ccccc1-c1ccc(Nc2nc(-c3ccncc3)nc3ccccc23)cc1F | < 1 µg/mL |
| O=C1CCCCc2cc(O)c(O)cc21 | > 28 µg/mL |
| Cc1ccc(-c2csc(Nc3ccc(S(=O)(=O)Nc4nccs4)cc3)n2)cc1C | < 1 µg/mL |
| c1ccc(-c2csc3ncnc(Sc4nnn(-c5ccccc5)n4)c23)cc1 | < 1 µg/mL |
| Brc1ccccc1-c1nc(NCc2ccc(-c3cccnc3)cc2)c2ccccc2n1 | < 1 µg/mL |
| c1ccc(Nc2cc3c(cn2)CN(Cc2c[nH]c4ccccc24)CCN3)cc1 | 43.7 µg/mL |
| COc1ccc(-c2nc3c(c(SCC(=O)Nc4ccc(C(=O)O)cc4)n2)Cc2ccccc2O3)cc1 | 1.45 µg/mL |
| Fc1ccc(-c2csc3ncnc(NCc4ccc5c(c4)OCO5)c23)cc1 | 0.226 µg/mL |
| O=C(NCCCc1ccccc1)c1cccc(-c2cc(O)c3ncccc3c2)c1 | < 1 µg/mL |
| Cc1ccc(S(=O)(=O)Nc2cccnc2C(=O)Nc2nc(-c3ccccc3)cs2)cc1 | < 1 µg/mL |
| CNC(=O)c1cc(Oc2ccc(NC(=O)Nc3ccc(Cl)c(C(F)(F)F)c3)c(F)c2)ccn1 | < 1 µg/mL |
| CCn1c(=NC(=O)c2ccc(S(=O)(=O)N3CCCCC3)cc2)sc2cccc(OC)c21 | < 1 µg/mL |
| CC(C)CN(C[C@@H](O)[C@H](Cc1ccccc1)NC(=O)O[C@@H]1CO[C@H]2OCC[C@H]21)S(=O)(=O)c1ccc(N)cc1 | > 81 µg/mL |
| Cc1cc(-c2nnc3n2CCCCC3)c(C)n1-c1ccccc1 | > 45 µg/mL |
| CCOC(=O)N1CCN(Cc2nc3c(c(=O)n(C)c(=O)n3C)n2CCC(C)C)CC1 | > 62 µg/mL |
| NC(=O)C1CCN(c2nc(-c3ccc(C(F)(F)F)cc3)cs2)CC1 | 1.98 µg/mL |
| Cc1ccnc(NC(=S)N2CC[C@@H](Nc3cccc(C(F)(F)F)c3)C2)c1 | 7.92 µg/mL |
| COc1cccc2nc(-c3cccs3)nc(NN3C(=O)C=C(C)C3=O)c12 | > 54 µg/mL |
| O=C(Nc1nc(-c2ccc(F)cc2)cs1)c1ccncc1NS(=O)(=O)c1ccc(F)cc1 | 30.2 µg/mL |
| CN1CCN(C2=Nc3cc(Cl)ccc3Nc3ccccc32)CC1 | 25.1 µg/mL |

* * *

Catalogue of molecules with associated solubility kinetic
settings: buffer; pH 7.4; 6.0 h; 150.0 µM

| molecule | solubility kinetic |
| --- | --- |
| N#Cc1nc(-c2cccc3ccccc23)oc1NC1COC1 | < 1 µg/mL |
| CC1=C(C(=O)NCc2ccccc2)C(c2ccccc2Br)N=C(Nc2nc3ccccc3o2)N1 (configuration not stated) | < 1 µg/mL |
| COc1ccc(-n2nc(C)c([C@@H]3C=C[C@@H](NCc4ccc(N(C)C)cc4)C3)c2C)cc1 | 50.3 µg/mL |
| NC(=O)C1CCN(c2nnc(-c3ccc4c(c3)OCCCO4)s2)CC1 | 9.84 µg/mL |
| OCCNc1ncnc2c1ncn2[C@@H]1O[C@@H](CO)[C@H](O)[C@@H]1O | > 46 µg/mL |
| COc1ccccc1N1CCN(c2ccc3cc(S(=O)(=O)N4CCCCC4)ccc3n2)CC1 | < 1 µg/mL |
| CN1CCN(c2ccc(Nc3c4ccccc4nc4ccccc34)cc2)CC1 | > 54 µg/mL |
| COc1ccc2[nH]c(=O)c(-c3noc(-c4ccccc4)n3)cc2c1 | < 1 µg/mL |
| CCOC(=O)c1c(C)c(-c2ccccc2)n(CC(=O)NCc2ccccc2)c1C | < 1 µg/mL |
| O=c1[nH]nc(Sc2ncc([N+](=O)[O-])s2)n1-c1ccc2c(c1)OCCO2 | 28.7 µg/mL |
| Cc1ccc(S(=O)(=O)Nc2ccccc2N2CCCCC2)cc1 | < 1 µg/mL |
| CC(C)NC(=O)c1nc(-c2ccc(Cl)nc2)c2ccccn12 | 17.2 µg/mL |
| Cc1ccc2c(c1)[nH]c1c(N3CCN(Cc4ccccc4)CC3)ncnc12 | < 1 µg/mL |
| COc1ccc(Nc2cnc3ccc(-c4ccc(OC)c(OC)c4)nn23)cc1 | < 1 µg/mL |
| Cn1c(=O)c2c(-c3ccc(Br)cc3)n(CCc3ccccc3)cc2n(C)c1=O | 14.7 µg/mL |
| Clc1ccc2ncc(-c3cccc(NC4CCNC4)n3)n2c1 (configuration not stated) | > 46 µg/mL |
| CNc1nc(-c2cccc3ccccc23)ccc1C#N | < 1 µg/mL |
| Cc1ccc(S(=O)(=O)Nc2cnccc2C(=O)Nc2nc(-c3cccc(F)c3)cs2)cc1 | 0.167 µg/mL |
| O=C(Nc1ccc(S(=O)(=O)N2CCN(Cc3ccccc3)CC2)cc1)c1cnccn1 | < 1 µg/mL |
| Cc1cnc(NC(=O)c2ccc(-c3cccc([N+](=O)[O-])c3)o2)s1 | < 1 µg/mL |
| COc1cccc(NC(=S)N2CCN(c3cccc(C(F)(F)F)c3)CC2)n1 | 0.435 µg/mL |
| O=[N+]([O-])c1cccc(CNc2ccc(S(=O)(=O)Nc3nccs3)cc2)c1O | 10.3 µg/mL |

// data source = PubChem BioAssay AID1645848
